Each recorded value in this set is attributed to paper PMC5540273.

- Test system: PIP5K1C;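 also: KINOMEscan kinase panel screen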
- Condition description: concentration: 1 μM,replicates: in singlicate; n = 1
Measured quantity: %Inh (%)
I only need the number, in %, no unit after it.

### Prompt Given the entry CN1CCN(CCCNc2nccc(-c3c(-c4ccc(F)cc4)nn4cc(C(N)=O)ccc34)n2)CC1 , report its measured %Inh.
### Response 50

### Prompt Given the entry CCn1c(-c2nonc2N)nc2cncc(Br)c21 , report its measured %Inh.
### Response 53

### Prompt Given the entry CS(=O)(=O)Nc1ccc(-c2ccnc3[nH]ccc23)cc1 , report its measured %Inh.
### Response 29

### Prompt Given the entry CC(=O)c1c(-c2ccncc2)[nH]c(-c2ccncc2)c1C , report its measured %Inh.
### Response 91.1

### Prompt Given the entry Cc1nnc(-c2ccc3occ(-c4ccc(S(C)=O)cc4)c3n2)o1 (centres unmarked) , report its measured %Inh.
### Response 10
